System: colon 38 cells
protocol-description: In vitro antitumor test against colon 38 cells (MTT)
Format: cell-based
cond: 72 h, concentration at which 50% of mouse colon 38 cells are inhibited, 3 days
assay-metric: IC50 (µg/mL)

Examples with their reported IC50 follow.
CN(C)S(=O)(=O)c1ccc(S(=O)(=O)Nc2cccc3c(Cl)c[nH]c23)cc1 [Example 74] yielded IC50 of 0.36

Cc1ccc(NS(=O)(=O)c2ccc(N)cc2)c2[nH]cc(Cl)c12 [Example 27] yielded IC50 of 0.1

CS(=O)(=O)Nc1ccc(S(=O)(=O)Nc2cccc3c(Cl)c[nH]c23)cc1 [Example 4] yielded IC50 of 0.26

[a] Cn1cnc(S(=O)(=O)Nc2cccc3c(C#N)c[nH]c23)c1 [Example 55]
[b] N#Cc1c[nH]c2c(NS(=O)(=O)c3ccc(Cl)s3)cccc12 [Example 40]
Given the listed items, does a or b have the lesser reported IC50? Your choice should be expressed through its label.
b
(b: 0.27 µg/mL, a: 0.59 µg/mL)
